Molecular target: human CXCR3 (N-delta 4) (Homo sapiens, UniProt P49682)
Construct: CD8 leader (N); Flag tag; expressed in transfected cells; membranes
Sequence (P49682 5-368 limits assumed): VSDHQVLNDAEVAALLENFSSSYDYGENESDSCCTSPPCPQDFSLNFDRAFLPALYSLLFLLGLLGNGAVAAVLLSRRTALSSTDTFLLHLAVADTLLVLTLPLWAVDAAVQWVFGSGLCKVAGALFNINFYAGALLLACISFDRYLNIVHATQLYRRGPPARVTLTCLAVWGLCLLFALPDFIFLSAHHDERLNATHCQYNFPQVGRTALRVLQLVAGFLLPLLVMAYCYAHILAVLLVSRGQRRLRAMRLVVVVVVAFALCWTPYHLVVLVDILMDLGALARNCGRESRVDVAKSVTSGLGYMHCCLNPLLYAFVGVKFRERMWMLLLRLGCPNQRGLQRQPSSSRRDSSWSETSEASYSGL
Assay: Human CXCR3 (N-delta 4) Scintillation Proximity Assay (SPA), [125I] IP-10 binding
Details: IC50 rating; [125I] IP-10 displacement, Ba/F3-hCXCR3 (N-delta 4) membranes
valueType: IC50

1) CC[C@H]1CN(c2ncc(-c3ncc[nH]3)cc2Cl)CCN1C1CCN([C@H](C(N)=O)c2ccc(Cl)cc2)CC1    < 25 nM
2) CC[C@H]1CN(c2ncc(-c3ncc[nH]3)cc2Cl)CCN1C1CCN(Cc2ccc(Cl)cc2C(C)(C)O)CC1    < 25 nM
3) CC[C@H]1CN(c2ncc(-c3ncc[nH]3)cc2Cl)CCN1C1CCN(Cc2ccc(Cl)cc2-c2ncc[nH]2)CC1    < 25 nM
4) CC[C@H]1CN(c2ncc(-c3ncc[nH]3)cc2Cl)CCN1C1CCN(Cc2ccc(Cl)cc2-c2ncon2)CC1    < 25 nM
5) CC[C@H]1CN(c2ncc(-c3ncc[nH]3)cc2Cl)CCN1C1CCN(C(CO)c2ccc(Cl)cc2)CC1 (stereo partly shown)    < 25 nM
6) CC[C@H]1CN(c2ncc(-c3ncc[nH]3)cc2Cl)CCN1C1CCN(C(=O)c2ccc(-c3ccccc3)cc2)CC1    > 100 nM
7) CC[C@H]1CN(c2ncc(-c3ncc[nH]3)cc2Cl)CCN1C1CCN(C(=O)c2ccc(C#CCOC)cc2)CC1    < 25 nM
8) CC[C@H]1CN(c2ncc(-c3ncc[nH]3)cc2Cl)CCN1C1CCN(Cc2ccc(-n3cccn3)cc2)CC1    < 25 nM
9) CC[C@H]1CN(c2ncc(C3=NCCN3)cc2Cl)CCN1C1CCN(C(=O)c2ccc(Br)cc2)CC1    < 25 nM
10) CC[C@H]1CN(c2ncc(C3=NCCN3)cc2Cl)CCN1C1CCN(Cc2ccc(C#CC(C)(C)NS(=O)(=O)NC(=O)OC(C)(C)C)cc2)CC1    > 100 nM
11) CCOC(=O)C1CC1c1ccc(CN2CCC(N3CCN(c4ncc(C5=NCCN5)cc4Cl)C[C@@H]3CC)CC2)cc1 (stereo partly shown)    < 25 nM
12) CC[C@H]1CN(c2ncc(-c3ncc[nH]3)cc2Cl)CCN1C1CCN(Cc2ccc(C(N)=O)cc2)CC1    > 100 nM
13) CC[C@H]1CN(c2ncc(-c3nnc[nH]3)cc2Cl)CCN1C1CCN(Cc2ccc(Cl)cc2F)CC1    < 25 nM
14) CC[C@H]1CN(c2ncc(-c3ncc[nH]3)cc2Cl)CCN1C1CCN(Cc2ccc(C#CC(C)(C)NS(N)(=O)=O)cc2)CC1    25 to 100 nM
15) CC[C@H]1CN(c2ncc(-c3nnc(N)o3)cc2C(F)(F)F)[C@H](C)CN1C1CCN(Cc2ccc(OC(F)(F)F)cc2)CC1    < 25 nM
16) CC[C@H]1CN(c2ncc(-c3ncc[nH]3)cc2Cl)CCN1C1CCN(C(=O)c2ccc(C#CC(C)(C)O)cc2)CC1    25 to 100 nM
17) CC[C@H]1CN(c2ncc(-c3ncc[nH]3)cc2Cl)CCN1C1CCN([C@@H](C(=O)NC2CC2)c2ccc(Cl)cc2)CC1    < 25 nM
18) CC[C@H]1CN(c2ncc(-c3ncon3)cc2Cl)CCN1C1CCN(Cc2ccc(Cl)cc2F)CC1    > 100 nM
19) CC[C@H]1CN(c2ncc(-c3cnco3)cc2Cl)CCN1C1CCN(Cc2ccc(Cl)cc2)CC1    25 to 100 nM
20) CC[C@H]1CN(c2ncc(-c3ncc[nH]3)cc2Cl)CCN1C1CCN([C@@H](C(=O)NCC2CC2)c2ccc(Cl)cc2)CC1    25 to 100 nM
21) CC[C@H]1CN(c2ncc(C3=NCCN3)cc2Cl)CCN1C1CCN(Cc2ccc(F)cc2)CC1    < 25 nM
22) CC[C@H]1CN(c2ncc(-c3ncc[nH]3)cc2Cl)CCN1C1CCN([C@H](C(=O)NC)c2ccc(Cl)cc2)CC1    > 100 nM
23) CC[C@H]1CN(c2ncc(-c3ncc[nH]3)cc2Cl)CCN1C1CCN([C@H](C(=O)OC)c2ccc(Br)cc2)CC1    25 to 100 nM
24) CC[C@H]1CN(c2ncc(-c3ncc[nH]3)cc2Cl)CCN1C1CCN(C(=O)c2ccc(Br)cc2)CC1    < 25 nM
25) CCOC1(C)NN=C(c2cnc(N3CCN(C4CCN(C(=O)c5ccc(Br)cc5)CC4)[C@@H](CC)C3)c(Cl)c2)O1 (stereo partly shown)    > 100 nM
26) C[C@@H]1CN(C2CCN(Cc3ccc(Cl)cc3F)CC2)[C@@H](C)CN1c1ncc(-c2ncc[nH]2)cc1Cl    < 25 nM
27) CC[C@H]1CN(c2ncc(-c3nnn[nH]3)cc2Cl)CCN1C1CCN(Cc2ccc(Cl)cc2F)CC1    > 100 nM
28) CC[C@H]1CN(c2ncc(-c3ncc[nH]3)cc2Cl)CCN1C1CCN(Cc2ccc(Cl)cc2C(N)=O)CC1    < 25 nM
